target: αvβ5 (Homo sapiens, UniProt P06756+P18084); construct: purchased Immunological Sciences (Rome, Italy); assay: Competitive integrin binding assay (isoDGR/STV-HRP) on αvβ5-coated plates; conditions: number in parenthesis
Where a SMILES comes first, the peptide text is derived from it. Bridges are numbered along the chain shown (N, C = ends). [ ]: non-standard residue; d: D form. The star is where a group is joined. X1 = NC(=O)C1CCC(CN2C(=O)CC(*)C2=O)CC1; X2 = O=C(O)C1CCC(CN2C(=O)CC(*)C2=O)CC1; dPhg = N[C@@H](C(=O)O)c1ccccc1
Parameter: ratio of integrin Ki/αvβ3 Ki (αvβ5)

Past entries and their recorded results:
{"columns": ["Molecule", "ratio of integrin Ki/αvβ3 Ki (αvβ5)"],
 "data": [
  ["N=C(N)NCCC[C@@H]1NC(=O)CNC(=O)C[C@@H](C(=O)O)NC(=O)[C@H](CS)NC(=O)[C@@H](c2ccccc2)NC(=O)CNC1=O [isoDGR#7, c(CisoDGRGphg)] (GRG[dPhg]CD-OH; lactam N-6)", "(0.6)"],
  ["N=C(N)NCCC[C@@H]1NC(=O)CNC(=O)C[C@@H](C(=O)O)NC(=O)CNC(=O)[C@H](CS)NC(=O)CNC1=O [isoDGR#1, c(CGisoDGRG)] (GRGCGD-OH; lactam N-6)", "(2)"],
  ["N=C(N)NCCC[C@@H]1NC(=O)CNC(=O)C[C@@H](C(=O)O)NC(=O)CNC(=O)[C@H](CSC2CC(=O)N(CC3CCC(C(=O)O)CC3)C2=O)NC(=O)CNC1=O (stereo partly shown) [isoDGR#1-P2] (GRGC(X2)GD-OH; lactam N-6)", "(1.6)"],
  ["N=C(N)NCCC[C@@H]1NC(=O)CNC(=O)C[C@@H](C(=O)O)NC(=O)CNC(=O)[C@H](CSC2CC(=O)N(CC3CCC(C(N)=O)CC3)C2=O)NC(=O)CNC1=O (stereo partly shown) [isoDGR#1-P1] (GRGC(X1)GD-OH; lactam N-6)", "(1)^"],
  ["N=C(N)NCCC[C@@H]1NC(=O)CNC(=O)C[C@@H](C(=O)O)NC(=O)[C@H](CS)NC(=O)CNC1=O [isoDGR#2, c(CisoDGRG)] (GRGCD-OH; lactam N-5)", "(1)"]
]}

--- query ---
[in] Consider the molecule shown here: N=C(N)NCCC[C@@H]1NC(=O)CNC(=O)C[C@@H](C(=O)O)NC(=O)[C@H](CS)NC(=O)CNC(=O)CNC1=O [isoDGR#3, c(CisoDGRGG)] (GRGGCD-OH; lactam N-6) What is its recorded ratio of integrin Ki/αvβ3 Ki (αvβ5)?
[out] (1)

###

target: αvβ8 (Homo sapiens, UniProt P06756+P26012); construct: purchased R&D System (Minneapolis, Minn.); assay: Competitive integrin binding assay (isoDGR/STV-HRP) on αvβ8-coated plates; conditions: number in parenthesis
Where a SMILES comes first, the peptide text is derived from it. Bridges are numbered along the chain shown (N, C = ends). [ ]: non-standard residue; d: D form. The star is where a group is joined. X1 = NC(=O)C1CCC(CN2C(=O)CC(*)C2=O)CC1; X2 = O=C(O)C1CCC(CN2C(=O)CC(*)C2=O)CC1; dPhg = N[C@@H](C(=O)O)c1ccccc1
Parameter: ratio of integrin Ki/αvβ3 Ki (αvβ8)

Past entries and their recorded results:
{"columns": ["Compound", "ratio of integrin Ki/αvβ3 Ki (αvβ8)"],
 "data": [
  ["N=C(N)NCCC[C@@H]1NC(=O)CNC(=O)C[C@@H](C(=O)O)NC(=O)[C@H](CS)NC(=O)[C@@H](c2ccccc2)NC(=O)CNC1=O [isoDGR#7, c(CisoDGRGphg)] (GRG[dPhg]CD-OH; lactam N-6)", "(0.4)"],
  ["N=C(N)NCCC[C@@H]1NC(=O)CNC(=O)C[C@@H](C(=O)O)NC(=O)[C@H](CSC2CC(=O)N(CC3CCC(C(=O)O)CC3)C2=O)NC(=O)CNC(=O)CNC1=O (stereo partly drawn) [isoDGR#3-P2] (GRGGC(X2)D-OH; lactam N-6)", "(24)"],
  ["N=C(N)NCCC[C@@H]1NC(=O)CNC(=O)C[C@@H](C(=O)O)NC(=O)CNC(=O)[C@H](CSC2CC(=O)N(CC3CCC(C(=O)O)CC3)C2=O)NC(=O)CNC1=O (stereo partly shown) [isoDGR#1-P2] (GRGC(X2)GD-OH; lactam N-6)", "(318)"],
  ["N=C(N)NCCC[C@@H]1NC(=O)CNC(=O)C[C@@H](C(=O)O)NC(=O)[C@H](CS)NC(=O)CNC1=O [isoDGR#2, c(CisoDGRG)] (GRGCD-OH; lactam N-5)", "(2.2)"],
  ["N=C(N)NCCC[C@@H]1NC(=O)CNC(=O)C[C@@H](C(=O)O)NC(=O)CNC(=O)[C@H](CS)NC(=O)[C@@H](c2ccccc2)NC1=O [isoDGR#5, c(CGisoDGRphg)] (GR[dPhg]CGD-OH; lactam N-6)", "(42)"]
]}

[in] Consider the compound shown here: N=C(N)NCCC[C@@H]1NC(=O)CNC(=O)C[C@@H](C(=O)O)NC(=O)[C@H](CS)NC(=O)CNC(=O)CNC1=O [isoDGR#3, c(CisoDGRGG)] (GRGGCD-OH; lactam N-6) What is its recorded ratio of integrin Ki/αvβ3 Ki (αvβ8)?
[out] (1.2)

[in] Consider the compound shown here: N=C(N)NCCC[C@@H]1NC(=O)CNC(=O)C[C@@H](C(=O)O)NC(=O)CNC(=O)[C@H](CSC2CC(=O)N(CC3CCC(C(N)=O)CC3)C2=O)NC(=O)CNC1=O (stereo partly shown) [isoDGR#1-P1] (GRGC(X1)GD-OH; lactam N-6) What is its recorded ratio of integrin Ki/αvβ3 Ki (αvβ8)?
[out] (160)
